Each recorded value in this set is attributed to ChEMBL document CHEMBL1201862.

Exercise: for every item that follows, state its recorded GI50.
- System: MCF7
- assay-notes: NCI tumour cell line growth inhibition, 48 h
Calls of active or inactive are those of the source. Cut-off read from the data, not from the text of the source: active = GI50 up to about 1.1 µM and inactive = higher.

If you can, please state the reported GI50 value of COc1cc(/C=C2\N=C(c3ccccc3)N(c3ccc(C(=O)c4ccccc4)cc3N3C(=O)/C(=C/c4cc(OC)c(OC)c(OC)c4)N=C3c3ccccc3)C2=O)cc(OC)c1OC .
12.6 µM (inactive)

Param item = Cc1cc2c(cc1-c1cc3c(cc1C)C(C(C)C)=C(O)C(=O)/C3=C\Nc1c(C)n(C)n(-c3ccccc3)c1=O)/C(=C/Nc1c(C)n(C)n(-c3ccccc3)c1=O)C(=O)C(O)=C2C(C)C ; retrieve measured GI50.
38.8 µM (inactive)

Tell me the measured GI50 of CC[N+](C)(CC)Cc1ccccc1[N+](=O)[O-] , please.
> 100 µM (inactive)

Query (molecule): COC(=O)C1(CCC(C)=O)CCCCCC1=O (stereo not drawn) ; field requested: GI50
> 100 µM (inactive)

Record request: GI50 value, item Cc1ccc2c(c1)-c1c(C#N)c(N)nc(-c3ccccc3)c1CCS2(=O)=O
4.48 µM (inactive)

Requested field: GI50. Item: C=CCC(O[Si](C)(C)C(C)(C)C)c1cc(O[Si](C)(C)C(C)(C)C)ccc1OC (stereo not drawn)
51.1 µM (inactive)

What measured GI50 goes with CCOC(=O)C1=C(C)N(Cc2ccccc2)C2(O)C(OC)CC(=O)C3C(=O)N(c4ccccc4)C(=O)C132 (stereo not drawn) ?
3.61 µM (inactive)

Returns the measured GI50 for the input molecule. Input: NC(CCCCCCCCCCP(=O)(O)O)C(=O)O (stereo not drawn)
> 100 µM (inactive)

###

- Test system: EKVX
- assay-notes: NCI tumour cell line growth inhibition, 48 h
Calls of active or inactive are those of the source. Rule as the data show it: active = GI50 up to about 1.1 µM and inactive = higher.
I'd be grateful if you could share measured GI50 for these entries.

Bench note: what GI50 did O=C(O)C(O)(c1ccc(-c2ccccc2)cc1)c1ccc(-c2ccccc2)cc1 show?
24.3 µM (inactive)

For the compound shown here, NCCCOCC(=O)O , give the reported GI50.
> 100 µM (inactive)

Fill blank: measured GI50 of the compound O=C(O)CNc1ncc2c(n1)-c1ccccc1OC2 is ____.
> 100 µM (inactive)

I would be grateful if you could share the reported GI50 for Cc1cc(Cl)ccc1NC(=O)CC/C(CC(=O)C(C)C)=N\NC(=O)C[n+]1ccccc1 .
> 100 µM (inactive)

Which measured GI50 value corresponds to COc1ccc(NCc2cc(OC)c(OC)c(OC)c2)cc1 ?
4.97 µM (inactive)

State the recorded GI50 for this entry: O=C(c1ccc(Cl)cc1)c1ccc(OCCCOc2ccc(C(=O)c3ccc(Cl)cc3)cc2)cc1
> 100 µM (inactive)

GI50 lookup needed for COc1ccccc1NC(=O)C1=C(C)NC(C)=C(C(=O)Nc2ccccc2OC)C1c1ccccc1[N+](=O)[O-] , thanks.
64.1 µM (inactive)

If you can, please state the reported GI50 value of Cn1c(NC(=O)NC23CC4CC(CC(C4)C2)C3)nc2ccccc21 .
83.8 µM (inactive)

Data request, read-out GI50, for CN/C=C(/c1ccc(OC)cc1)C(O)c1ccc(OC)c(OC)c1 (stereo unspecified)
> 100 µM (inactive)

Given COc1cccc2c1CCc1sc(CN3CCN(C)CC3)nc1-2 , state its recorded GI50.
> 100 µM (inactive)

Can you share its GI50? I mean this compound: CC[N+](C)(CC)Cc1ccccc1[N+](=O)[O-]
32.3 µM (inactive)

Bench note: what GI50 did O=c1[nH]nc(-c2ccccc2)c2[nH]c3c4ccccc4ccc3c12 show?
3.44 µM (inactive)

What value of GI50 has been reported for the following compound? Cc1c(CCCl)c(Cl)n2c(nc3ccccc32)c1C#N
3.21 µM (inactive)

Give its GI50 value. Item: COC(=O)C(CCC#N)(CCC#N)C(=O)OC
> 100 µM (inactive)

May I ask what GI50 has been recorded for COc1cc(C2c3cc4c(cc3[C@H](OCCN(C)C)[C@@H]3COC(=O)C23)OCO4)cc(OC)c1O (stereo partly specified) ?
0.485 µM (active)

Which measured GI50 value corresponds to CC1=NN2C=Nc3c(c(-c4ccc(Cl)cc4)cn3-c3ccc(C)cc3)C2N1 (stereo unspecified) ?
> 100 µM (inactive)

Fill in: GI50 of C=CCc1cccc(/C=N\N/C(N)=N/O)c1O is ___
3.06 µM (inactive)

For the compound CC(=O)O[C@H]1C(=O)[C@@]2(C)C([C@H](OC(=O)c3ccccc3)[C@]3(O)C[C@H](OC(=O)[C@H](O)[C@@H](NC(=O)c4ccc(Cl)cc4)c4ccccc4)C(C)=C1C3(C)C)C1(OC(C)=O)CO[C@@H]1C[C@@H]2O (stereo partly specified) , what GI50 is on record?
9.2 µM (inactive)

Returns the measured GI50 for the input compound. Input: C[N+](C)=C/C=C(\Cl)c1ccc2ccccc2c1
24.5 µM (inactive)

Suppose we examine the compound COC(=O)c1cc(NC2OCC(OC(C)=O)C(OC(C)=O)C2OC(C)=O)nc(SC)c1C(=O)OC (stereo unspecified) ; what GI50 value has been reported?
> 100 µM (inactive)

Returns the measured GI50 for the input compound. Input: CSCCCNC(=O)c1csc(-c2csc(CCNC(=O)CNC(=O)OC(C)(C)C)n2)n1
> 100 µM (inactive)
